Experimental Details: Repeat dose plasma pharmacokinetics, IP
Assay type: in vivo, SCID Beige mice
Measurement Context: 25 mg/kg IP once daily for 4 weeks, 24 h after the final dose
Endpoint Name: Plasma concentration
Just the number plus its unit, please.

Inquiry: Look at this compound and give its reported Plasma concentration. N=c1c2c(-c3ccccc3)c(-c3ccccc3)n(Cc3ccccc3)c2ncn1[C@H]1CC[C@H](O)CC1
Reply text: 1460 nM

---

Experimental Details: in vivo
Set-up: species or system BALB/c mice
Measurement Context: female, BALB/c, mouse, ip, 25 mg/kg
Endpoint Name: half-life

Inquiry: Look up half-life for this compound: N=c1c2c(-c3ccccc3)c(-c3ccccc3)n(Cc3ccccc3)c2ncn1[C@H]1CC[C@H](O)CC1
Reply text: 4.6 to 5.5 h
